settings: rat; liver microsomes; pH 7.4; 15.0 min; 1.0 µM
Label f if half-life falls below 6 min; label t in every other case.

INSERT INTO assay_data (compound, class) VALUES
  ('FC(F)(F)c1ccccc1-c1nc(NCc2cccs2)c2ccccc2n1', 'f');

Q: Has `Cc1nc(NC2CCCCC2)c2nc(-c3ccccc3)n(CCN(C)C)c2n1` a recorded half-life greater than or equal to 6 min?
Ans: f

Q: Can you handle `COc1cccc(CN2CCNc3cc(Nc4ccccc4)ncc3C2)c1` next?
Ans: f

Q: Can you handle `Cc1ccc(S(=O)(=O)Nc2cnccc2C(=O)Nc2ccc(-c3nc4ccccc4[nH]3)cc2)cc1` next?
Ans: t

Q: Can you handle CN(C)C(=O)NC1CCC(CCN2CCN(c3cccc(Cl)c3Cl)CC2)CC1 (stereo not given) next?
Ans: t

Q: Can you handle `Cc1cc(SCC(=O)c2ccccc2)n2ncc(-c3ccccc3)c2n1` next?
Ans: f

Q: Can you handle `COc1ccccc1C(=O)Nc1ccccc1C(=O)Nc1cccc(C(F)(F)F)c1` next?
Ans: t

Q: Can you handle Fc1ccc(N2CCCN(CC3[C@H]4CNC[C@@H]34)CC2)cc1 (stereo not given in full) next?
Ans: t

Q: Can you handle `Cc1ccc(-c2ccc(CNc3nc(-c4ccccc4C(C)C)nc4ccccc34)cc2)cn1` next?
Ans: t
